- system under test: Aminopeptidase N (Plasmodium falciparum (isolate 3D7)) (UniProt O96935)
- Sequence (O96935 whole entry, looked up): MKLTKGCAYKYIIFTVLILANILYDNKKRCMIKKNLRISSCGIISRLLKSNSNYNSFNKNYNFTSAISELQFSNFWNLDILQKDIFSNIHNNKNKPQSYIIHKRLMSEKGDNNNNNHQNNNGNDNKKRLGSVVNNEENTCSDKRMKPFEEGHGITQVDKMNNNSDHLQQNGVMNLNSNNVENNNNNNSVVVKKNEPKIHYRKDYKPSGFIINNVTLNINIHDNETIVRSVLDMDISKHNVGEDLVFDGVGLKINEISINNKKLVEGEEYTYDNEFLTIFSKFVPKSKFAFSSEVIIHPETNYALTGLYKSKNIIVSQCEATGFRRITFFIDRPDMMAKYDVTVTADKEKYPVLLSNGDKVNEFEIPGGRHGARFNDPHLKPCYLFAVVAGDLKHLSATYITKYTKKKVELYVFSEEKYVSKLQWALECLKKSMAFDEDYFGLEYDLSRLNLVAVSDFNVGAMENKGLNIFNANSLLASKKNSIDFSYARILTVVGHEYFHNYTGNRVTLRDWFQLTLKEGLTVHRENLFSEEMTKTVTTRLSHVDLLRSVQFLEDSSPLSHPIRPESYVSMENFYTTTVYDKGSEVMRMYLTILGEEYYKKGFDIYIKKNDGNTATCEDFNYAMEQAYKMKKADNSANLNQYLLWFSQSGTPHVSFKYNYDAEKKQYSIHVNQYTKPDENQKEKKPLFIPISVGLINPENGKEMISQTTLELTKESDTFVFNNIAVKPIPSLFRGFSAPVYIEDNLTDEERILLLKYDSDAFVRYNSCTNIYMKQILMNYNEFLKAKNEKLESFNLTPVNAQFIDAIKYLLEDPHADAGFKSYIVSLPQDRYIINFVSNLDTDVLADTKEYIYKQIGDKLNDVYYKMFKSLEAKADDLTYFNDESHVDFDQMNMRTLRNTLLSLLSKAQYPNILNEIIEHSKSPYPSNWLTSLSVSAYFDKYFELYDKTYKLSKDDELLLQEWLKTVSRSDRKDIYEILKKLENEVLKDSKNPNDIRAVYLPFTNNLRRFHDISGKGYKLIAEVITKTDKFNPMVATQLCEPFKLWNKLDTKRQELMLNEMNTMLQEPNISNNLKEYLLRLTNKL
- assay info: malaria alanyl aminopeptidase activity blockers – biochemical, fluorogenic H-Leu-NHMec substrate, 1536-well (AID 1445);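 also: plate controls were DMSO full reaction for no effect and no enzyme background for full effect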
- settings: recombinant M1AAP, H-Leu-NHMec fluorogenic kinetic assay; at 30 µM
The campaign covered roughly 220,000 compounds. About 910 (0.41%) were called active.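 The calls were made as follows: active = primary inhibition above the hit cutoff, then over 50% inhibition at one or more dose response concentrations (cut at about 23% in these data, passing the limit was not always enough); inconclusive = conflicting primary data, or primary hits not chosen for dose response; inactive = low primary inhibition, or under 50% at every dose.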 The list comes from a sample in which actives are over-represented; it also holds close analogues and randomly drawn compounds. Results with a measured potency or affinity are listed apart.
Thanks in advance; please answer with one of these: T (active), F (inactive)

## Task Any idea what this test logged for NNC(=O)C1CC1c1ccccc1 (centres undefined) ?
## Result F

## Task Any idea what this test logged for Cc1ccc(C)n1NC(=O)c1ccc(O)cc1 ?
## Result F

## Task Any idea what this test logged for COc1ccc(NS(=O)(=O)c2ccc(C)cc2)c([N+](=O)[O-])c1 ?
## Result F

## Task Any idea what this test logged for CS(=O)(=O)N(CC(=O)Nc1ccccc1C(=O)N1CCOCC1)c1ccc2c(c1)OCO2 ?
## Result T

## Task Any idea what this test logged for CN(C)CCCNC(=O)c1ccc(Cl)c(S(=O)(=O)N(C)c2ccccc2)c1 ?
## Result F

## Task Any idea what this test logged for Cc1ccc(C(=O)NCC(=O)OCC(=O)c2c(N)n(C)c(=O)n(C)c2=O)s1 ?
## Result F

## Task Any idea what this test logged for CC(=O)C1=C(O)C(=O)N(C2CCCCC2)C1c1ccccc1 (centres undefined) ?
## Result F

## Task Any idea what this test logged for Cc1ccc(C)c(NC(=O)c2ccccc2NS(=O)(=O)c2cc([N+](=O)[O-])ccc2C)c1 ?
## Result F

## Task Any idea what this test logged for CN(CCNC(=O)CCCOc1cc(=O)n(C)c2ccccc12)Cc1ccccc1 ?
## Result F

## Task Any idea what this test logged for CC(=O)N1CCN(C(C)=O)C1c1ccccc1 ?
## Result F

## Task Any idea what this test logged for Cc1ccc2c(CN3C(=O)NC4(CCCCC4)C3=O)cc(=O)oc2c1C ?
## Result F

## Task Any idea what this test logged for COc1ccc(C(=O)CC(=O)c2ccccc2O)cc1OC ?
## Result F

## Task Any idea what this test logged for C/C(CC(=O)Nc1ccccc1)=N\NC(=O)COc1ccc(C)cc1Br ?
## Result F

## Task Any idea what this test logged for CC(=O)c1sc(NC(=O)CCCOc2ccc(Cl)cc2)nc1C ?
## Result F

## Task Any idea what this test logged for CCc1nnc(NS(=O)(=O)c2ccc(NC(=S)NC(=O)c3ccccc3)cc2)s1 ?
## Result F

## Task Any idea what this test logged for COc1cc(NS(=O)(=O)c2ccc(NC(=S)NC(=O)C(C)(C)C)cc2)nc(OC)n1 ?
## Result F

## Task Any idea what this test logged for O=C(NCc1ccccc1)C1CCN(C(=O)NCc2ccccc2)CC1 ?
## Result F

## Task Any idea what this test logged for CCOP(=O)(O)c1cccc(OCCOCCOc2cccc(P(=O)(O)OCC)c2)c1 ?
## Result F

## Task Any idea what this test logged for O=c1c(-c2ccc3c(c2)OCCO3)coc2cc(O)cc(O)c12 ?
## Result F

## Task Any idea what this test logged for Cc1cc(NS(=O)(=O)c2ccccc2)c([N+](=O)[O-])cc1C ?
## Result F

## Task Any idea what this test logged for CS(=O)(=O)N(CC(=O)Nc1ccccc1C(=O)N1CCOCC1)c1ccccc1 ?
## Result F

## Task Any idea what this test logged for COc1cc(C(=O)Nc2ccc(S(=O)(=O)Nc3ncccn3)cc2)c([N+](=O)[O-])cc1OC ?
## Result F

## Task Any idea what this test logged for Cc1cc(Oc2cc(N)cc([N+](=O)[O-])c2)ccc1Cl ?
## Result F

## Task Any idea what this test logged for CCc1ccc(N2CC(C(=O)Nc3cc(C)ccc3F)CC2=O)cc1 (centres undefined) ?
## Result F

## Task Any idea what this test logged for CC(C)OCCCNC(=O)c1ccc2c(=O)n(Cc3ccc4c(c3)OCO4)c(=S)[nH]c2c1 ?
## Result F

## Task Any idea what this test logged for Cc1ccc(NCN2C(=O)C3CC=CCC3C2=O)cc1 (centres undefined) ?
## Result F

## Task Any idea what this test logged for CCC(=O)N1CCN(C(C)=O)C1c1ccccc1 (centres undefined) ?
## Result F

## Task Any idea what this test logged for CN(C1CCCCC1)S(=O)(=O)c1ccccc1 ?
## Result F

## Task Any idea what this test logged for CCOC(=O)CSCc1nc(-c2ccc(Cl)cc2)oc1C ?
## Result F

## Task Any idea what this test logged for COc1cc([N+](=O)[O-])ccc1NC(=O)CCCOc1ccc(C)cc1 ?
## Result F

## Task Any idea what this test logged for COc1ccccc1N1CCN(C(=O)c2ccc3nc[nH]c3c2)CC1 ?
## Result F

## Task Any idea what this test logged for CS(=O)(=O)N(CC(=O)Nc1ccccc1C(=O)N1CCCC1)c1ccc2c(c1)OCO2 ?
## Result F

## Task Any idea what this test logged for CCc1nnc(NS(=O)(=O)c2ccc(NC(=O)/C=C/c3ccc(F)cc3)cc2)s1 ?
## Result F

## Task Any idea what this test logged for N#C/C(=C(/O)c1cccs1)c1nc2ccccc2[nH]1 ?
## Result F

## Task Any idea what this test logged for CCOc1ccc(NC(=S)Nc2ccc(Br)cc2Cl)cc1 ?
## Result F

## Task Any idea what this test logged for COC(=O)C(=Nc1ccccc1)/C(C(=O)C(=O)N(C)c1ccccc1)=C(\O)c1ccccc1 ?
## Result F

## Task Any idea what this test logged for Cc1cc(Cl)ccc1OCC(=O)OC(C)C(=O)NC(N)=O (centres undefined) ?
## Result F

## Task Any idea what this test logged for CC1C(=O)CC(c2ccccc2)N(C)C1c1ccccc1 (centres undefined) ?
## Result F

## Task Any idea what this test logged for CCOc1ccccc1CN1CCN(Cc2[nH]c3ccccc3c2C)CC1CCO (centres undefined) ?
## Result F

## Task Any idea what this test logged for CC(C)c1cc(C(=O)Nc2sc3c(c2C#N)CCC3)no1 ?
## Result F

## Task Any idea what this test logged for CCc1nnc(NS(=O)(=O)c2ccc(NC(=S)NC(=O)/C=C/c3ccc(OC)cc3)cc2)s1 ?
## Result F

## Task Any idea what this test logged for COc1cccc(/C=C2\SC(N)=NC2=O)c1OS(=O)(=O)c1ccccc1 ?
## Result F

## Task Any idea what this test logged for COc1ccccc1-c1ccc(SCC(=O)NCCc2ccccc2)nn1 ?
## Result F

## Task Any idea what this test logged for Cc1oc2cc(O)cc(O)c2c(=O)c1-c1ccc2c(c1)OCCCO2 ?
## Result F

---

Kindly supply the reported inhibition values for the records listed here.
- system under test: Aminopeptidase N (Plasmodium falciparum (isolate 3D7))
- assay info: malaria alanyl aminopeptidase activity blockers – biochemical, fluorogenic H-Leu-NHMec substrate, 1536-well (AID 1445);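 also: plate controls were DMSO full reaction for no effect and no enzyme background for full effect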
- settings: recombinant M1AAP, H-Leu-NHMec fluorogenic kinetic assay; at 30 µM, active compounds read high unless noted
The whole screen tested about 220,000 compounds, of which about 910 (0.41%) were called active. Shown is part of a subset that was picked to be rich in actives. Results with a measured potency or affinity are listed apart.
Record the value in %, omitting the unit from your answer.

## Task Given the entry Cc1cc(Cl)ccc1OCCCC(N)=O , report its measured inhibition.
## Result 1.94

## Task Given the entry CN1C(=O)/C(=N\OC(=O)c2cccc3ccccc23)c2ccccc21 , report its measured inhibition.
## Result 5.56

## Task Given the entry C=CCn1c(=O)/c(=C/c2ccc(F)cc2)s/c1=C(\C#N)c1nnc2n1CCCCC2 , report its measured inhibition.
## Result 20.7

## Task Given the entry CCOC(=O)c1c(-c2ccc(F)cc2)csc1NC(=O)c1c(-c2ccccc2)noc1C , report its measured inhibition.
## Result 0.4

## Task Given the entry CC1=CC(c2ccccc2)n2nnnc2N1 (stereo unspecified) , report its measured inhibition.
## Result -5.78

## Task Given the entry CN1C(=O)/C(=N/OC(=O)c2ccccc2)c2ccccc21 , report its measured inhibition.
## Result -0.99

---

- system under test: Aminopeptidase N (Plasmodium falciparum (isolate 3D7))
- assay info: malaria alanyl aminopeptidase activity blockers – biochemical, fluorogenic H-Leu-NHMec substrate, 1536-well (AID 1445);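 also: plate controls were DMSO full reaction for no effect and no enzyme background for full effect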
- settings: recombinant M1AAP, H-Leu-NHMec fluorogenic kinetic assay; at 30 µM, active compounds read high unless noted
The campaign covered roughly 220,000 compounds. About 910 (0.41%) were called active. The entries come from a sample that favours actives as a whole. Potency and affinity values are given separately.
Kindly supply the reported inhibition values for the records listed here.
Record the value in %, omitting the unit from your answer.

## Task Given the entry CCOC(=O)N1CCN(C(=O)CN2C(=O)COc3ccc(C(C)(C)C)cc32)CC1 , report its measured inhibition.
## Result 2.47

## Task Given the entry O=C(NCCc1ccc(Cl)cc1)C1CCN(S(=O)(=O)c2ccc(Br)s2)CC1 , report its measured inhibition.
## Result 4.81

## Task Given the entry S=C(c1ccc(Br)cc1)N1CCN(Cc2ccccc2)CC1 , report its measured inhibition.
## Result 12.5

## Task Given the entry CCOC(=O)c1cc2c(=O)[nH]ccc2nc1C(F)(F)F , report its measured inhibition.
## Result 5.5

## Task Given the entry COc1cccc(NC(=O)C2CCN(S(=O)(=O)c3ccc4c(c3)OCCO4)CC2)c1 , report its measured inhibition.
## Result 43

## Task Given the entry CS(=O)(=O)NN1C(=O)c2ccccc2NC12CCCC2 , report its measured inhibition.
## Result 6.27

## Task Given the entry Cc1cccc(S(=O)(=O)c2c(N)n(Cc3ccco3)c3nc4ccccc4nc23)c1 , report its measured inhibition.
## Result 20.6

## Task Given the entry O=C(NCc1cccs1)C1CCN(c2ccc(S(=O)(=O)N3CCOCC3)cc2Cl)CC1 , report its measured inhibition.
## Result -0.57

## Task Given the entry O=C1CC(c2ccco2)CC(O)=C1C=Nc1cc(Cl)cc(Cl)c1 (stereo not drawn) , report its measured inhibition.
## Result -0.66

## Task Given the entry O=C(NCc1ccco1)C1CCN(S(=O)(=O)c2cccc3cccnc23)CC1 , report its measured inhibition.
## Result 0.35

## Task Given the entry Cc1ccc(S(=O)(=O)N(C)C)cc1NC(=O)Nc1ccccc1 , report its measured inhibition.
## Result 3.2

## Task Given the entry Cc1ccc(CSc2nc3sc(C)c(C)c3c(=O)n2Cc2ccco2)cc1 , report its measured inhibition.
## Result 9.77

## Task Given the entry COc1ccc(S(=O)(=O)N2CCC(C(=O)NCc3cccs3)CC2)cc1 , report its measured inhibition.
## Result 6.28

## Task Given the entry Clc1ccc(/C=N/Nc2nnc(Cl)c3ccccc23)cc1 , report its measured inhibition.
## Result 14.4

## Task Given the entry COc1ccc(NC(=O)C2CCCN(S(=O)(=O)c3cccc4cccnc34)C2)cc1OC (stereo not drawn) , report its measured inhibition.
## Result 28.4

## Task Given the entry CC1(C)Nc2ccccc2C(=O)N1NC(=O)c1ccccc1 , report its measured inhibition.
## Result 22.7

## Task Given the entry COc1ccc(NC(=O)C2CCN(S(=O)(=O)c3cccc4cccnc34)CC2)cc1OC , report its measured inhibition.
## Result 2.6

## Task Given the entry CN(C)C(=O)N1CCCC(C(=O)NCCc2ccccc2)C1 (stereo not drawn) , report its measured inhibition.
## Result 2.4

## Task Given the entry CCCCn1c(NC(=O)c2ccccc2)c(C#N)c2nc3ccccc3nc21 , report its measured inhibition.
## Result 2.47

## Task Given the entry Brc1ccc(C2Nc3cccc4cccc(c34)N2)s1 , report its measured inhibition.
## Result 1.05

## Task Given the entry Cc1nc(S/C(=C/c2ccc(-c3cccc(Cl)c3)o2)C(=O)O)n[nH]1 , report its measured inhibition.
## Result -8.13

## Task Given the entry O=C(NCc1cccs1)C1CCN(S(=O)(=O)c2cccc3cccnc23)CC1 , report its measured inhibition.
## Result 45.9

## Task Given the entry Clc1ccc(/C=N\Nc2ccccc2)cc1 , report its measured inhibition.
## Result 4.31

## Task Given the entry O=C(NCc1cccs1)C1CCCN(S(=O)(=O)c2ccc3c(c2)OCO3)C1 (stereo not drawn) , report its measured inhibition.
## Result 8.66

## Task Given the entry Cc1cc(C)n(-c2ccc(C(=O)OCC(=O)Nc3ccc(S(=O)(=O)N4CCOCC4)cc3)cc2)n1 , report its measured inhibition.
## Result -7.49

## Task Given the entry COc1cccc(NC(=O)C2CCCN(S(=O)(=O)c3cccc4cccnc34)C2)c1 (stereo not drawn) , report its measured inhibition.
## Result 4.01

## Task Given the entry O=C(NCc1cccs1)C1CCCN(S(=O)(=O)c2cccc3cccnc23)C1 (stereo not drawn) , report its measured inhibition.
## Result 21.9

## Task Given the entry CC1C(c2ccccc2)N(C)C(c2ccccc2)CC1(O)c1ccccc1 (stereo not drawn) , report its measured inhibition.
## Result 16.7

## Task Given the entry O=C(CC1(c2ccc(Cl)cc2)C2CC3CC(C2)CC1C3)NCCO (stereo not drawn) , report its measured inhibition.
## Result 3.19

## Task Given the entry CCCc1nnc(NC(=O)Cn2c(=O)oc3ccccc32)s1 , report its measured inhibition.
## Result -0.7

## Task Given the entry COc1ccc(CNC(=O)C2CCN(S(=O)(=O)c3cccc4cccnc34)CC2)cc1 , report its measured inhibition.
## Result 11.4

## Task Given the entry O=C(Nc1ccc2c(c1)OCCO2)C1CCN(S(=O)(=O)c2ccc3c(c2)OCCO3)CC1 , report its measured inhibition.
## Result 9.64

## Task Given the entry O=C(NCc1ccc(Cl)cc1)C1CCN(S(=O)(=O)c2ccccc2)CC1 , report its measured inhibition.
## Result 11.8

## Task Given the entry CC(=O)c1ccc(-c2ccc(/C=C(/Sc3n[nH]c(C)n3)C(=O)O)o2)cc1 , report its measured inhibition.
## Result 5.19

## Task Given the entry Cc1ccc(S(=O)(=O)c2c(N)n(Cc3ccco3)c3nc4ccccc4nc23)cc1 , report its measured inhibition.
## Result 24.7

## Task Given the entry CC(C)COC(=O)N(C)c1ccc(C(O)(C(F)(F)F)C(F)(F)F)cc1 , report its measured inhibition.
## Result 11.6

## Task Given the entry CCOC(=O)NN1C(=O)c2ccccc2NC1(C)C , report its measured inhibition.
## Result 13.7

## Task Given the entry Cc1onc(-c2ccccc2)c1NC(=O)Nc1c(-c2ccccc2)noc1C , report its measured inhibition.
## Result 5.84

## Task Given the entry O=Cc1ccc(-c2ccc(C(=O)O)cc2)o1 , report its measured inhibition.
## Result 7.72

## Task Given the entry NS(=O)(=O)c1ccc(CCNC(=O)C2CCN(S(=O)(=O)c3ccc(Br)s3)CC2)cc1 , report its measured inhibition.
## Result 2.64

## Task Given the entry C=CCn1c(=O)c2ccccc2n2c(SCc3nnc(-c4ccccc4Br)o3)nnc12 , report its measured inhibition.
## Result 2.98

## Task Given the entry O=C(NCc1cccs1)C1CCN(S(=O)(=O)c2ccc3c(c2)OCCO3)CC1 , report its measured inhibition.
## Result 23.4

## Task Given the entry COc1ccc(-n2c(NC(=O)c3ccc(Br)o3)c(C#N)c3nc4ccccc4nc32)cc1 , report its measured inhibition.
## Result 1.59

All figures here come from PubChem BioAssay AID1445.
